Data origin: ChEMBL document CHEMBL1641603

target: PROBABLE TRANSMEMBRANE CARBONIC ANHYDRASE (CARBONATE DEHYDRATASE) (CARBONIC DEHYDRATASE) (Mycobacterium tuberculosis, UniProt P96878)
Sequence (P96878 whole entry): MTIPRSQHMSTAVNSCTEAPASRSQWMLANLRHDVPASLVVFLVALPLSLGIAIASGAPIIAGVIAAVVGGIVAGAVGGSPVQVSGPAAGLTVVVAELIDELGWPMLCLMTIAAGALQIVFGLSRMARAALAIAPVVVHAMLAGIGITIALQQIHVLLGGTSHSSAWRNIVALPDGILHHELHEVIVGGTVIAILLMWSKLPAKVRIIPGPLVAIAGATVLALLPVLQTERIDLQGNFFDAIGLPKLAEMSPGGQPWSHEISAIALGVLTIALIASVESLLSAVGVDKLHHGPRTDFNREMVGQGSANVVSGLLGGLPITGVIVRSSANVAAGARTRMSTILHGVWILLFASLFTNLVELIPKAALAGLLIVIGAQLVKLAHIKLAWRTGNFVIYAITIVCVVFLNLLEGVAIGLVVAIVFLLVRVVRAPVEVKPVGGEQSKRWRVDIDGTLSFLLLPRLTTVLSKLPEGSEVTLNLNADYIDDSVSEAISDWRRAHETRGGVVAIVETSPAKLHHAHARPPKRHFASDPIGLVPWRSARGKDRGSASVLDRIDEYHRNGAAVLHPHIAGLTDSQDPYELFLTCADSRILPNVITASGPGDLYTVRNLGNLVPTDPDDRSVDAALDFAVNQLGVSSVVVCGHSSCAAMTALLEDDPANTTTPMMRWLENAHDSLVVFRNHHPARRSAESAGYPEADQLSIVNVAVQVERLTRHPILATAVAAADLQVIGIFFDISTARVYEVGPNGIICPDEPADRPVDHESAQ
quantity.kind: pKi
# pKi: negative log10 of molar concentration; output just the value

Query :: Returns the measured pKi for the input compound. Input: Nc1ccc(S(N)(=O)=O)cc1 [SULFANILAMIDE]
Result :: 5.20
